# Lookup of reported LD50 keyed by entry
Assay: in vivo
Conditions: mouse, ip, LD50, male mouse
API: value field is a number in mg/kg; no unit string.

compound | LD50 [mg/kg]
CC(=O)NCCCS(=O)(=O)[O-].[Li+] | 4260

Attention now turns to another entry.
Name the reported LD50 value associated with the compound CC(=O)NCCCS(=O)(=O)O [Magnesium acetylhomotaurinate, magnesium N-acetylhomotaurinate]
2570

----------
Overview of reported antagonism of the hypermotility by ethanol, result across a group of compounds:
Test system: hypermotility by ethanol
Test: antagonism of the hypermotility caused by ethanol (Cott-Carlsson Engel Lindqvist test)
Format: in vivo, mouse
Conditions: 400 mg per os
API doc: respond with a numeric literal and nothing else, no unit.

compound | endpoint_value
CC(=O)NCCS(=O)(=O)O [Magnesium acetyltaurinate, reference compound] | 0

Consider the record given below.
Look up antagonism of the hypermotility by ethanol, result for this compound: CC(=O)NCCS(=O)(=O)[O-].[Na+] [Sodium acetyltaurinate, reference compound]
0
